Target protein (sequence): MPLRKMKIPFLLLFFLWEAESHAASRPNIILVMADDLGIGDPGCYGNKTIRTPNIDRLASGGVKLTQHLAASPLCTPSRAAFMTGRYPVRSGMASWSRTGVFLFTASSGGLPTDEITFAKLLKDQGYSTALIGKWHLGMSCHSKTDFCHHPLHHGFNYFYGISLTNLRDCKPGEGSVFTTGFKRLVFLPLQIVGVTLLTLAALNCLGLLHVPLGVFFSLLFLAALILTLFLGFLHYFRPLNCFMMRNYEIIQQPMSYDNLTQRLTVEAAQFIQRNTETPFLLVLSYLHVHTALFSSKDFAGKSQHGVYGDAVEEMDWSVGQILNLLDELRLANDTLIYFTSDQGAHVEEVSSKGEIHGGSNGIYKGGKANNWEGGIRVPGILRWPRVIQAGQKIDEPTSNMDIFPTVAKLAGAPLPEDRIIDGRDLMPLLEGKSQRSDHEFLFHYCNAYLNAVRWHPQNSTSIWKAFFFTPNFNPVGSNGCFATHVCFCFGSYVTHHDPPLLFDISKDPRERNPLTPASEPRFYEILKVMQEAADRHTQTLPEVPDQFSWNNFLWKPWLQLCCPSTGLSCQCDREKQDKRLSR
Output condition met for records whose IC50 is lower than 60 nM, condition not met for records at or above 60 nM.

Look over these answered cases.
smiles_code=CCCCc1ccc(S(=O)(=O)N[C@H]2CC[C@H]3[C@@H]4CCc5cc(O)ccc5[C@H]4CC[C@]23C)cc1 assigned_category="condition met"
smiles_code=C[C@]12CC[C@@H]3c4ccc(O)cc4CC[C@H]3[C@@H]1CC[C@@H]2NS(=O)(=O)c1ccc(Cl)cc1 assigned_category="condition not met"
smiles_code=C[C@]12CC[C@@H]3c4ccc(O)cc4CC[C@H]3[C@@H]1CC[C@@]2(O)Cc1ccc(-c2ccccc2)cc1 assigned_category="condition met"

// next entry
Find out if reported IC50 for "C[C@]12CC[C@@H]3c4ccc(O)cc4CC[C@H]3[C@@H]1CC[C@@H]2NS(=O)(=O)Cc1ccccc1" is less than 60 nM condition not met

---

Measured target: Steryl-sulfatase (Homo sapiens, UniProt P08842)
Property measured: IC50 (nM)
Write down the numeric answer in nM and omit the unit.

Worked cases, answers included:
smiles_code=COc1cccc(S(=O)(=O)N[C@H]2CC[C@H]3[C@@H]4CCc5cc(O)ccc5[C@H]4CC[C@]23C)c1 observed_value=193
smiles_code=C[C@]12CC[C@@H]3c4ccc(O)cc4CC[C@H]3[C@@H]1CC[C@@H]2NS(=O)(=O)c1cccc(Br)c1 observed_value=25
smiles_code=CC(C)(C)c1ccc(S(=O)(=O)N[C@H]2CC[C@H]3[C@@H]4CCc5cc(O)ccc5[C@H]4CC[C@]23C)cc1 observed_value=18
smiles_code=C[C@]12CC[C@@H]3c4ccc(O)cc4CC[C@H]3[C@@H]1CC[C@@H]2NS(=O)(=O)c1ccc(-c2ccccc2)cc1 observed_value=9
smiles_code=C[C@]12CC[C@@H]3c4ccc(O)cc4CC[C@H]3[C@@H]1CC[C@@H]2NS(=O)(=O)c1ccccc1Br observed_value=493

Entry under review: "Cc1cccc(S(=O)(=O)N[C@H]2CC[C@H]3[C@@H]4CCc5cc(O)ccc5[C@H]4CC[C@]23C)c1" . Reported IC50? 65

"CCCc1ccc(S(=O)(=O)N[C@H]2CC[C@H]3[C@@H]4CCc5cc(O)ccc5[C@H]4CC[C@]23C)cc1" ? 44

Measured values drawn from ChEMBL document CHEMBL1944519 for this set.
